Please provide measured % block (maximum observed effect) for the entries that follow.
Target: T1, recombinant human CD40L (human, UniProt P29965 108-261, limits assumed)
T1 construct: Bought soluble recombinant protein (R&D, HEK, 6420-CL/CF); also called hCD40L; human CD40L (HEK, R&D)
T1 sequence: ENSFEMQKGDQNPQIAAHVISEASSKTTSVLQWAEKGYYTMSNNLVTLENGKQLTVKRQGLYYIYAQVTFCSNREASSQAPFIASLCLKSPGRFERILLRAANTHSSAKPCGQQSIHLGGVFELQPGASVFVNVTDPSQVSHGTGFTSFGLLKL
Experiment: FACS ligand competition, biotinylated human CD40L on rhesus CD40 HEK cells
Numbers only; they are read as %.

For record C0100029C10 (VHH, Monovalent Nanobody; tag of the monovalent form not spelled out; also called C01000029C10) VHH: EVQLVESGGGLVQPGGSLRLSCAASGFTLDYYALGWFRQAPGKEREGVSCISSTESSDGSTYYADSVKGRFTISRDSAKNTVYLQMNSLKPEDTAVYYCATDQTLFGVCRGIATPDPGFWGQGTLVTVSS the listed % block (maximum observed effect) is 87

Lab note: C0100028B02 (VHH, Monovalent Nanobody produced in P. pastoris (pAX205); Detected with anti-FLAG reagents, but the tag of the monovalent form is not spelled out; also called C01000028B02) VHH: EVQLVESGGGLVQPGGSLRLSCAASGFTLEYYAIGWFRQAPGKEREGVSCISSEGSTSYTDSVKGRFTISRDNAKNTVYLQMNSLKPEDTAVYYCATDPDRGFLGSSCDTQSHQYDYWGQGTLVTVSS gave % block (maximum observed effect) of 72

Data point: C0100046B03 (VHH, Monovalent Nanobody; tag of the monovalent form not spelled out; also called C01000046B03) VHH: EVQLVESGGGLVQAGGSLRLSCAASGRTPLNYHMAWFRQAPGKEREFVAAISSLLGSTDYSDSLKDRFTISRDNAKATLYLRMNNLKPEDTAVYYCAARETTHYSTSDRVNEMRHYDYWGQGTLVTVSS ; % block (maximum observed effect) = 100

For reference, reported % block (maximum observed effect) for C0100044B07 (VHH, Monovalent Nanobody; tag of the monovalent form not spelled out; also called C01000044B07) VHH: EVQLVESGGGLVQPGGRLRLSCAASGFTLDYYALAWFRQAPGKEREGVSCISSSEGSTDYADYADSVKGRFTISRDTAKNTVYLQMNNLKPEDTAVYYCATDETTFFSGSCTLSAATFGSWGQGTLVTVSS stands at 83
